Reference source: ChEMBL document CHEMBL1153769

- System: Mus musculus
- assay-info: Toxicity in mouse EAC cells transplanted Swiss albino mouse assessed as change in hemoglobin content at 25 mg/kg. ip dissolved in DMSO for 14 days measured after final dose by 18 hrs fasting
- Format: organism-based, Ehrlich
- Set-up: dose 25 mg/kg, route intraperitoneal
- details: in vivo
Consider the following molecules; for each one, report its Activity.
The figure you give is taken to be in %; do not add the unit.

Per the record, `CC(=O)O[C@H]1CC[C@H]2[C@@H]3CC[C@H]4CNC(=O)CC[C@]4(C)[C@H]3CC[C@]12C` has Activity of 12.96

Per the records, this molecule ( `CC(=O)O[C@H]1CC[C@H]2[C@@H]3CC[C@H]4Cc5c(C#N)c(N)n(-c6ccccc6)c(=S)c5C[C@]4(C)[C@H]3CC[C@]12C` ) has Activity equal to 12.6

Reported Activity ( CC(=O)O[C@H]1CC[C@H]2[C@@H]3CC[C@H]4CC5=C(C[C@]4(C)[C@H]3CC[C@]12C)C(c1ccccc1)OC(N)=C5C#N (stereo not given in full) ) = 12.5

Notebook: `CC(=O)O[C@H]1CC[C@H]2[C@@H]3CC[C@H]4C/C(=N/n5c(-c6ccccc6)csc5=S)CC[C@]4(C)[C@H]3CC[C@]12C` , Activity read as 10.7

Notebook: COc1ccc(C2Oc3nc(N)c(C#N)c(N)c3C3=C2C[C@@]2(C)[C@@H](CC[C@@H]4[C@@H]2CC[C@]2(C)[C@@H](OC(C)=O)CC[C@@H]42)C3)cc1 (stereo not given in full) , Activity read as 12.65
